System: RAW 264.7 cells
Experiment: Quantitative cell-permeability of FITC-labeled aMTD- or rPeptide-fused CRA recombinant proteins (flow cytometry)
Type: cell-based
Details: cell-permeability of rPeptide-fused CRA recombinant protein relative to average of 240 aMTDs; 10 μM FITC-labeled, 1 hour, 37° C., RAW 264.7 cells
observable: Relative Ratio to aMTD AVE
Keep it simple and answer with nothing but the number.

> print(dat)
                                  substance  test.value
1  113 (PVAVALLIAVPP; Amino acid Sequence of rPeptide ID 113) [compound 113]        0.61
2  466 (IIAAAAPLAIIP; Amino acid Sequence of rPeptide ID 466) [compound 466]        0.52
3  29 (VLPPLPVLPVLP; Amino acid Sequence of rPeptide ID 29) [compound 29]        0.07
4  938 (VPVLLPVVVPVP; Amino acid Sequence of rPeptide ID 938) [compound 938]        0.28
5  67 (LDAEVPLADDVP; Amino acid Sequence of rPeptide ID 67) [compound 67]        0.08

*Q* // lookup Relative Ratio to aMTD AVE for 26 (AAIALAAPLAIV; Amino acid Sequence of rPeptide ID 26) [compound 26]
*A* 0.65

*Q* Entry under review: 38 (YYNQSTCGGQCY; Amino acid Sequence of rPeptide ID 38) [compound 38] . Reported Relative Ratio to aMTD AVE?
*A* 0.05

*Q* Field request: Relative Ratio to aMTD AVE | item: 66 (AGVLGGPIMGVP; Amino acid Sequence of rPeptide ID 66) [compound 66]
*A* 0.13

*Q* May I ask what Relative Ratio to aMTD AVE has been recorded for 17 (GGCSAPQTTCSN; Amino acid Sequence of rPeptide ID 17) [compound 17] ?
*A* 0.08

*Q* Name the reported Relative Ratio to aMTD AVE value associated with the substance 693 (AAPVLPVAVPIV; Amino acid Sequence of rPeptide ID 693) [compound 693]
*A* 0.13

*Q* Fill blank: measured Relative Ratio to aMTD AVE of the substance 921 (IWWFVVLPLVVP; Amino acid Sequence of rPeptide ID 921) [compound 921] is ____.
*A* 0.14

*Q* Fill in the blank: the reported Relative Ratio to aMTD AVE of 934 (LILAPAAVVAAA; Amino acid Sequence of rPeptide ID 934) [compound 934] is ____.
*A* 0.28

*Q* # get_value(readout='Relative Ratio to aMTD AVE', item= 39 (CYNTSPCTGCCY; Amino acid Sequence of rPeptide ID 39) [compound 39] )
*A* 0.29

*Q* Relative Ratio to aMTD AVE lookup needed for 692 (PAPLPPVVILAV; Amino acid Sequence of rPeptide ID 692) [compound 692] , thanks.
*A* 0.74

*Q* Need Relative Ratio to aMTD AVE, item 241 (AAAVVPVLLVAP; Amino acid Sequence of aMTD241) [compound 241]
*A* 0.33

*Q* // returns reported Relative Ratio to aMTD AVE for input 16 (NNSCTTYTNGSQ; Amino acid Sequence of rPeptide ID 16) [compound 16]
*A* 0.08
